// Criterion not met strictly below 100 °C in melting point; Criterion met otherwise

* COc1ccc2c3c(n(C)c2c1)CCCC3 | Criterion not met
* Cc1cc(C)c(N)c(C(O)c2ccccc2)c1 (stereo not given) | Criterion met
* O=C(OCc1ccccc1)c1sc(Cl)nc1C(F)(F)F | Criterion not met
* NCCCS(=O)(=O)O | Criterion met
* N#CC1OCC(OC(=O)c2ccccc2)C(OC(=O)c2ccccc2)C1OC(=O)c1ccccc1 (stereo not given) | Criterion met
* N=C1SCCN1CC(=O)c1ccc([N+](=O)[O-])cc1 | Criterion met
* Cc1ccc(S(=O)(=O)NCCNS(=O)(=O)c2ccc(C)cc2)cc1 | Criterion met
* O=C(O)c1cccc(S(=O)(=O)Oc2ccc3ccccc3c2)c1 | Criterion met
* O=C(O)C1=CCCCC1 | Criterion not met
